Quick list: Pair-wise inhibition (%) per entry.
study_system: recombinant pentameric gH complex (Towne strain) (human cytomegalovirus, Towne strain) (UniProt P17176)
Sequence (P17176 30-715, one chain of several): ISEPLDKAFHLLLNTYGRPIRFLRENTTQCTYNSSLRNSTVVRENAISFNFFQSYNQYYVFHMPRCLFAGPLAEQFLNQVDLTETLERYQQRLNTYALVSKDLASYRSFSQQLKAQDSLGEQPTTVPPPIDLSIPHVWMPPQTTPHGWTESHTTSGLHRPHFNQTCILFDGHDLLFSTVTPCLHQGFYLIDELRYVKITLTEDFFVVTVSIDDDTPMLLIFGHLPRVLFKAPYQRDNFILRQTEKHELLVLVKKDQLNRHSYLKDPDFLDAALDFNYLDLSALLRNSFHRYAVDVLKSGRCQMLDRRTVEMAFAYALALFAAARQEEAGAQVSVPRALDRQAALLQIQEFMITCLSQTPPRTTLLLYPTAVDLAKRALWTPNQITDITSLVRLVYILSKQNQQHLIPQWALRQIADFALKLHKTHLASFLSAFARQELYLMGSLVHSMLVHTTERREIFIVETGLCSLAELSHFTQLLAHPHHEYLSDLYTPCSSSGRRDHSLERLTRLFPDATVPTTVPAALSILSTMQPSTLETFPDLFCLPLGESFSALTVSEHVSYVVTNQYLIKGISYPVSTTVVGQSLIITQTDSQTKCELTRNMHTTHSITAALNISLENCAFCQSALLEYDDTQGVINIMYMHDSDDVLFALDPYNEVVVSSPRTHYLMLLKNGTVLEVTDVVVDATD
protocol_summary: BLI competition on His-pentamer; competitor (antibody 2): 316.2

| binder | measurement_unit | Pair-wise inhibition (%) |
| --- | --- | --- |
| 1-103 (antibody, V domains shown) VH: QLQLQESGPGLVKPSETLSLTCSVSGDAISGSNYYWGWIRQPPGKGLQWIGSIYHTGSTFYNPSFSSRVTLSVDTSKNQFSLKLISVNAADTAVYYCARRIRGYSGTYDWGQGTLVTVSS VL: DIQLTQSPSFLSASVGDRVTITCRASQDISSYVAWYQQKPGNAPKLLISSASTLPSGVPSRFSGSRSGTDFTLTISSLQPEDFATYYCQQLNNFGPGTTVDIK | % | -28 |
| 1-150 (antibody, V domains shown) VH: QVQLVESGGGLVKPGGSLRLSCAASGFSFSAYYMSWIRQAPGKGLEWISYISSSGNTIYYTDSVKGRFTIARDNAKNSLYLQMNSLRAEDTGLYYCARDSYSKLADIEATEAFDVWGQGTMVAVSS VL: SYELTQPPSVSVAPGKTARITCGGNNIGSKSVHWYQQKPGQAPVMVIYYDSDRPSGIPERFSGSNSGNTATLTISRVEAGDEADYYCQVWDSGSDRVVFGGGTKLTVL | % | -22 |
| 3-7 (antibody, V domains shown) VH: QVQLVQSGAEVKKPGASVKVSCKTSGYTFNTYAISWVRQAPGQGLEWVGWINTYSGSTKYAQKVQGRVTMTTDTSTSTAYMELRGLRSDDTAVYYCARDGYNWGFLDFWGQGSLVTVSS VL: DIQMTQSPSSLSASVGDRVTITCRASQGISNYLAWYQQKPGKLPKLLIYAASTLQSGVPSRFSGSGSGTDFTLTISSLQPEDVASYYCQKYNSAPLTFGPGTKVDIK | % | 21 |
| 1-85 (antibody, V domains shown) VH: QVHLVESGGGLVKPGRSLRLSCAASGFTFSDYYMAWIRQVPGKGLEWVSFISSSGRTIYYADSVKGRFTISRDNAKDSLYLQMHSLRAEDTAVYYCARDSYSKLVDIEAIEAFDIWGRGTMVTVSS VL: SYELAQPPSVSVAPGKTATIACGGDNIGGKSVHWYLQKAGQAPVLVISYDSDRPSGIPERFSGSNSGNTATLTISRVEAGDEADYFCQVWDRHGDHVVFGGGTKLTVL | % | 29 |
| 2-18 (antibody, V domains shown) VH: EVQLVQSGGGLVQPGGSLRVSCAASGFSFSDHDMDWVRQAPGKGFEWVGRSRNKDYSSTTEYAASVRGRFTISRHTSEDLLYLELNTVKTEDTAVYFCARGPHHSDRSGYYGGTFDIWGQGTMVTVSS VL: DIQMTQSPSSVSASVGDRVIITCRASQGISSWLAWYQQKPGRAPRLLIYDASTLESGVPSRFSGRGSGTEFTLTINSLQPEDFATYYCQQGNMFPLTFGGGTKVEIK | % | 3 |
